- MEASUREMENT_TARGET: Cyclin-dependent kinase 2/cyclin A (Homo sapiens) (UniProt P24941+P20248+P78396)
- PROTOCOL_SUMMARY: Inhibition of CDK2/cyclin A at 10 uM after 60 mins by TR-FRET assay
- Type: protein-complex assay
ASSAY_ENDPOINT: inhibition (%)
Please state the figure in %; there is no need to write the unit.

>>> print(df.to_string())
                                   molecule                        measurement_target  result_number
0  O=c1[nH]nc(-c2ccnc(NC3CCCOC3)c2)n1-c1ccc2ccccc2c1 (stereo unspecified)  Cyclin-dependent kinase 2/cyclin A (Homo sapiens) (UniProt P24941+P20248+P78396)              3

Give measured inhibition for O=c1[nH]nc(-c2ccnc(NC3CCOCC3)c2)n1-c1ccc2ccccc2c1 (Cyclin-dependent kinase 2/cyclin A (Homo sapiens) (UniProt P24941+P20248+P78396)).
35

Name the value of inhibition reported for O=c1n(C2CCOCC2)nc(-c2ccnc(NC3CCCCC3)c2)n1-c1ccc2ccccc2c1 when tested on Cyclin-dependent kinase 2/cyclin A (Homo sapiens) (UniProt P24941+P20248+P78396).
0

Write down measured inhibition (Cyclin-dependent kinase 2/cyclin A (Homo sapiens) (UniProt P24941+P20248+P78396)) for this molecule. O=c1n(Cc2ccccn2)nc(-c2ccnc(NC3CCOCC3)c2)n1-c1ccc2ccccc2c1
-6

GET inhibition where system = Cyclin-dependent kinase 2/cyclin A (Homo sapiens) (UniProt P24941+P20248+P78396) and item = O=c1[nH]nc(-c2ccnc(NC3CCCCC3)c2)n1-c1ccc2ccccc2c1
2

Give reported inhibition for O=c1n(Cc2ccncc2)nc(-c2ccnc(NC3CCCCC3)c2)n1-c1ccc2ccccc2c1 (Cyclin-dependent kinase 2/cyclin A (Homo sapiens) (UniProt P24941+P20248+P78396))
3

----------
- MEASUREMENT_TARGET: Tyrosine-protein kinase JAK1 (Homo sapiens) (UniProt P23458)
- Sequence (P23458 whole entry): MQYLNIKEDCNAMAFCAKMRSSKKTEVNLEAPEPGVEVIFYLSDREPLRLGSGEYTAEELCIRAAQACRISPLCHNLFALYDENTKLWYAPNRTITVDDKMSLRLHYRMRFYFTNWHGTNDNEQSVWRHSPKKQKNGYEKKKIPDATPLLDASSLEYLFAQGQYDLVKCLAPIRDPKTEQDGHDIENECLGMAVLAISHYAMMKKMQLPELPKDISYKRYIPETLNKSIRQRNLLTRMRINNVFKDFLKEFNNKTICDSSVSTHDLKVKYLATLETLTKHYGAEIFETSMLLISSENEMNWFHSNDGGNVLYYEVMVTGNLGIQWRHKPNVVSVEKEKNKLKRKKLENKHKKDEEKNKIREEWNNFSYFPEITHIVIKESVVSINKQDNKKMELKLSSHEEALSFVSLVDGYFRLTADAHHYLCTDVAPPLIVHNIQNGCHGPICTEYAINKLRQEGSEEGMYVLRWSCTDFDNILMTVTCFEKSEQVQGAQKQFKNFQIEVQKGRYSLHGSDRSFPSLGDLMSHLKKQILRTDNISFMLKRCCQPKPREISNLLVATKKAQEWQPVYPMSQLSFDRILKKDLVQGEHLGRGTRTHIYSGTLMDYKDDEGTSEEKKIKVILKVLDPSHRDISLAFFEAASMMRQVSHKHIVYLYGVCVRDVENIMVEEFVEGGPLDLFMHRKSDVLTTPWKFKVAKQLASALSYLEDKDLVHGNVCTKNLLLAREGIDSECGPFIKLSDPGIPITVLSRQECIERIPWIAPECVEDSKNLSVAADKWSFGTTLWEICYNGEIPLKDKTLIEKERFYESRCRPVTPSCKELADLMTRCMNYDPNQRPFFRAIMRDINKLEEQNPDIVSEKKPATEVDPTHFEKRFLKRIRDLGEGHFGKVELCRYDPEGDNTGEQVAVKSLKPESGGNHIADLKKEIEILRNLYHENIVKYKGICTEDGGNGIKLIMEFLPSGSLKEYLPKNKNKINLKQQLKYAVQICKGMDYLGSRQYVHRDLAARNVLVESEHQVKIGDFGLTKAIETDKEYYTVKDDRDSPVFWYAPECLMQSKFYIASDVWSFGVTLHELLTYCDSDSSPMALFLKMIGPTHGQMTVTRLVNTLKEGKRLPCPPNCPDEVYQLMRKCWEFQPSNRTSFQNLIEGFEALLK
- PROTOCOL_SUMMARY: Inhibition of JAK1 at 10 uM after 60 mins by TR-FRET assay
Recorded inhibition by entry
Answer with a number only, understood to be in %.

                                   compound                        measurement_target  assay_endpoint  result_number
0  O=c1n(Cc2ccncc2)nc(-c2ccnc(NC3CCCCC3)c2)n1-c1ccc2ccccc2c1  Tyrosine-protein kinase JAK1 (Homo sapiens) (UniProt P23458)      inhibition             -4
1  O=c1[nH]nc(-c2ccnc(NC3CCOCC3)c2)n1-c1ccc2ccccc2c1  Tyrosine-protein kinase JAK1 (Homo sapiens) (UniProt P23458)      inhibition             -3
2  O=c1[nH]nc(-c2ccnc(NC3CCCOC3)c2)n1-c1ccc2ccccc2c1 (stereo not given)  Tyrosine-protein kinase JAK1 (Homo sapiens) (UniProt P23458)      inhibition              1
3  O=c1n(C2CCOCC2)nc(-c2ccnc(NC3CCCCC3)c2)n1-c1ccc2ccccc2c1  Tyrosine-protein kinase JAK1 (Homo sapiens) (UniProt P23458)      inhibition              1

State its inhibition: O=c1[nH]nc(-c2ccnc(NC3CCCCC3)c2)n1-c1ccc2ccccc2c1
1
